Molecular target: EphB4 (Homo sapiens)
Sequence (P54760 16-987): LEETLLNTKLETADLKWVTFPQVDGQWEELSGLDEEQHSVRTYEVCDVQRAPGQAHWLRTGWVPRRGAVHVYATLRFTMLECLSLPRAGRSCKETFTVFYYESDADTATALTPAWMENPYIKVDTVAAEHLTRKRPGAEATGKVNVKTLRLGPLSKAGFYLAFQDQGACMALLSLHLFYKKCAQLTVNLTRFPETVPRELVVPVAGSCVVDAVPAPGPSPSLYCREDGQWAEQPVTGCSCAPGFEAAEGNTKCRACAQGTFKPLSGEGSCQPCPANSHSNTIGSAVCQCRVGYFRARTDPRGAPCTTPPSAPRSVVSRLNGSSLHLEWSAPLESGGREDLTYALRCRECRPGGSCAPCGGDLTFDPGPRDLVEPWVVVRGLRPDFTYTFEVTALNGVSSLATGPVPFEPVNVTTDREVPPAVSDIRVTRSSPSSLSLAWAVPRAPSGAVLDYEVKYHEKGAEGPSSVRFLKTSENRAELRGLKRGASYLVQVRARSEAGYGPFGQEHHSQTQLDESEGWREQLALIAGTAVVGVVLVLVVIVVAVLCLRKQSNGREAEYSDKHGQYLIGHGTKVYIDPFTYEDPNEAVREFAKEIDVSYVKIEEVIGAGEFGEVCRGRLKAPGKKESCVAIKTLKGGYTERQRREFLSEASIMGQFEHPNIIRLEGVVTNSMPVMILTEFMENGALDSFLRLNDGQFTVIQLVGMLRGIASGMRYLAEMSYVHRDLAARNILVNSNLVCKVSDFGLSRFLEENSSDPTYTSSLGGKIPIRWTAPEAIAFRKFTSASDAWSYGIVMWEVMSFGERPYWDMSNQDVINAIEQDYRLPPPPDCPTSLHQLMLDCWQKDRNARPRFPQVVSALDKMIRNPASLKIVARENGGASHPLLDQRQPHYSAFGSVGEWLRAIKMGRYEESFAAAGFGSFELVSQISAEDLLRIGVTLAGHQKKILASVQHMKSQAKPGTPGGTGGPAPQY
Assay: Cerep FRET-based enzymatic assay
Assay type: biochemical
Conditions: ATP 0.75 μM, read-out: Enzymatic assays IC50 Cerep
pIC50: −log10 of the molar value.

# Molecule Smiles, pIC50
measured = [
    ("Cn1c(=O)[nH]c(=O)c2c1nc1n(CCCCO)c(-c3ccccc3)cn21", 5.17),
]
